System: HOP-62 NSCLC
Experiment: NCI-60 one-dose screen, 48 h (100 = growth as untreated, 0 = no growth, -100 = all killed)
Conditions: 10 µM unless noted
This is part of a sample that, as a whole, favours compounds with a hit. Of some 83,000 tested, about 20% had one in any assay.
Parameter: growth (%)
Report as a plain number; the unit % is understood.

Some compounds with known growth results, for comparison:
{"Compound": "CNC(=S)N/N=C/CSC/C=N/NC(=S)NC", "Measurement units": "%", "Observed value": 90.5}
{"Compound": "COc1ccc(OCC(=O)Nc2ccc(-c3nc4ccccc4s3)cc2C)cc1", "Measurement units": "%", "Observed value": 89.5}
{"Compound": "CC(C)C1=C[C@@]23CC[C@@H]4[C@](C)(CCC[C@@]4(C)C(=O)OCC#CCN4CCCC4)[C@H]2C[C@@H]1[C@H]1C(=O)OC(=O)[C@H]13", "Measurement units": "%", "Observed value": 91.9}

[Q] Return growth for the following compound: CC1CN(Cc2ccco2)C(=S)N(c2ccccc2)C1=O (stereo not given)
[A] 88.1

[Q] Return growth for the following compound: c1ccc(CSc2ncnc3nc[nH]c23)nc1
[A] 92.2
